Each recorded value in this set is attributed to PubChem BioAssay AID1195.

Test system: human maximum recommended daily dose, FDA database
Test: DSSTox (FDAMDD) FDA Maximum (Recommended) Daily Dose Database
Conditions: TherapeuticCategory: antihyperlipoproteinemic; active compounds read low
Some compounds, each annotated with its measured maximum recommended daily dose (mmol/kg-bw/day).

These recorded examples may help you get a feel for the data.
Which maximum recommended daily dose (mmol/kg-bw/day) value belongs to CC(C)n1c(/C=C/[C@@H](O)C[C@@H](O)CC(=O)O)c(-c2ccc(F)cc2)c2ccccc21 ?
0.00162

Would you kindly repeat that for CC(C)(Oc1ccc(C2CC2(Cl)Cl)cc1)C(=O)O (stereo unspecified) ?
0.00578

Okay, and C[N+](C)(C)CC(O)CC(=O)[O-] (stereo unspecified) ?
0.104

Repeat with COCc1c(C(C)C)nc(C(C)C)c(/C=C/[C@@H](O)C[C@@H](O)CC(=O)O)c1-c1ccc(F)cc1
1.09e-05

Moving on to the next compound: Cc1ccc(C)c(OCCCC(C)(C)C(=O)O)c1
0.0799

Another: CC[C@H](C)C(=O)O[C@H]1C[C@H](O)C=C2C=C[C@H](C)[C@H](CC[C@@H](O)C[C@@H](O)CC(=O)O)[C@H]21
0.00157

Could you do the same for CCOC(=O)C(C)(C)Oc1ccc(Cl)cc1 , please?
0.137

Repeat with C[N+](C)(C)C[C@H](O)CC(=O)[O-]
0.307

New cases:
Fill in: maximum recommended daily dose (mmol/kg-bw/day) of O=C(OCC(COC(=O)c1cccnc1)(COC(=O)c1cccnc1)COC(=O)c1cccnc1)c1cccnc1 is ___
0.00719

Proceed to CCC(C)(C)C(=O)O[C@H]1C[C@@H](C)C=C2C=C[C@H](C)[C@H](CC[C@@H]3C[C@@H](O)CC(=O)O3)[C@H]21
0.00159

How about CN(C)C(=O)CCCOC(=O)C(C)(C)Oc1ccc(Cl)cc1 ?
0.137
